System: HCV subgenomic reporter replicon of genotype 1b (strain Con1)
experiment-notes: Anti-HCV 1b activity, luciferase reporter replicon assay in Huh5-2 cells
Type: cell-based, Hepatitis C virus
run-parameters: Hepatitis C virus, Huh-5-2, read-out: EC50 against HCV genotype 1b
measured-quantity: EC50
Kindly report the value followed by its unit.

Look up EC50 of CCOC(=O)N[C@@H](C(=O)N1CCC[C@H]1C(=O)Nc1ccc2c(c1)Cc1cc(NC(=O)[C@@H]3CCCN3C(=O)[C@H](NC(=O)OCC)c3ccccc3)ccc1-2)c1ccccc1 and report it.
0.04 nM

* * *

Tested on: HCV subgenomic reporter replicon of genotype 1b (strain Con1)
experiment-notes: Anti-HCV 1b activity, luciferase reporter replicon assay in Huh5-2 cells
Assay type: cell-based, Hepatitis C virus
run-parameters: Hepatitis C virus, Huh-5-2, 72 h, read-out: HCV Replicon 1b EC50
# EC50 per entry

Observe how each entry below is paired with its result.
• COC(=O)N[C@@H](C(=O)N1CCC[C@H]1C(=O)Nc1ccc2c(c1)Cc1cc(NC(=O)[C@@H]3CCCN3C(=O)[C@H](NC(=O)OC)C(C)C)ccc1-2)C(C)C = 801 nM
• COC(=O)N[C@H](CC(C)C)C(=O)N1CCC[C@H]1C(=O)Nc1ccc2c(c1)Cc1cc(NC(=O)[C@@H]3CCCN3C(=O)[C@@H](CC(C)C)NC(=O)OC)ccc1-2 = 0.081 nM
• CC(C)C[C@@H](NC(=O)OCc1ccccc1)C(=O)N1CCC[C@H]1C(=O)Nc1ccc2c(c1)Cc1cc(NC(=O)[C@@H]3CCCN3C(=O)[C@@H](CC(C)C)NC(=O)OCc3ccccc3)ccc1-2 = > 1000 nM

Look up EC50 of CCC(C)[C@H](NC(=O)OC)C(=O)N1CCCC(C(=O)Nc2ccc3c(c2)Cc2cc(NC(=O)C4CCCN(C(=O)[C@@H](NC(=O)OC)C(C)CC)C4)ccc2-3)C1 (stereo partly shown) and report it.
296 nM

Look up EC50 of COC(=O)N[C@H](C(=O)N1CCC[C@H]1C(=O)Nc1ccc2c(c1)Cc1cc(NC(=O)[C@@H]3CCCN3C(=O)[C@@H](NC(=O)OC)c3ccccc3)ccc1-2)c1ccccc1 and report it.
8.5 nM

Look up EC50 of CCOC(=O)N[C@H](CC(C)C)C(=O)N1CCC[C@H]1C(=O)Nc1ccc2c(c1)Cc1cc(NC(=O)[C@@H]3CCCN3C(=O)[C@@H](CC(C)C)NC(=O)OCC)ccc1-2 and report it.
2.55 nM

Look up EC50 of CCCCOC(=O)N[C@H](C(=O)N1CCC[C@H]1C(=O)Nc1ccc2c(c1)Cc1cc(NC(=O)[C@@H]3CCCN3C(=O)[C@@H](NC(=O)OCCCC)c3ccccc3)ccc1-2)c1ccccc1 and report it.
2.25 nM

Look up EC50 of COC(=O)N[C@H](C(=O)N1CCCC(C(=O)Nc2ccc3c(c2)Cc2cc(NC(=O)C4CCCN(C(=O)[C@@H](NC(=O)OC)C(C)C)C4)ccc2-3)C1)C(C)C (stereo partly shown) and report it.
342 nM

Look up EC50 of CCOC(=O)N[C@H](C(=O)N1CCC[C@H]1C(=O)Nc1ccc2c(c1)Cc1cc(NC(=O)[C@@H]3CCCN3C(=O)[C@@H](NC(=O)OCC)c3ccccc3)ccc1-2)c1ccccc1 and report it.
7.49 nM

Look up EC50 of CCCCOC(=O)N[C@H](CC(C)C)C(=O)N1CCC[C@H]1C(=O)Nc1ccc2c(c1)Cc1cc(NC(=O)[C@@H]3CCCN3C(=O)[C@@H](CC(C)C)NC(=O)OCCCC)ccc1-2 and report it.
> 1000 nM

// data source = paper PMC8064491
